- Test system: SK-MEL-5 melanoma
- Experimental Protocol: NCI-60 one-dose screen, 48 h
- Condition Notes: 10 µM unless noted
The panel holds about 83,000 compounds, 20% with a hit somewhere; the sample as a whole holds those more often. Calls of active or inactive are those of the source. The calls were made as follows: active = growth percent below 10; inactive = the rest.
Hi! Could you answer with just one of these? yes = active, no = inactive

- Molecule: "Cc1nn(-c2ccccc2)c2nc(C)n(-c3ccc(Br)cc3)c(=O)c12"
  Measured On: "SK-MEL-5 melanoma"
  Answer Label: "yes"
- Molecule: "C=C1C(=O)O[C@H]2[C@H]1CC/C(Cn1cc(Cn3ccc4cc(Cl)ccc43)nn1)=C\\CC[C@@]1(C)O[C@@H]21"
  Measured On: "SK-MEL-5 melanoma"
  Answer Label: "no"
- Molecule: "C#Cc1nc(Nc2cc(C)[nH]n2)c2ccccc2n1"
  Measured On: "SK-MEL-5 melanoma"
  Answer Label: "yes"

Would you mind telling me which call this test gave CCn1cc2c(cc1=O)-c1nc3ccccc3c3ccnc(c13)C2=O ?
no

Would you mind telling me which call this test gave CCOC(=O)C(C#N)C1CCCCC1 (stereo not given) ?
no

Would you mind telling me which call this test gave CCCCCCCCCCCCCCCCCCNC(=O)[C@H]1CSC(c2ccc(F)c(OC)c2)N1 (stereo not given in full) ?
yes

Would you mind telling me which call this test gave Cc1sc2nc3[nH]/c(=C\c4ccc(Cl)cc4)c(=O)n3c(=O)c2c1C ?
no

Would you mind telling me which call this test gave CS(=O)(=O)c1ccc(-c2cnc3ccc(-c4cccc(S(C)(=O)=O)c4)nn23)cc1 ?
no

Would you mind telling me which call this test gave COCCOc1ccc(-c2nc3ccc(-c4nc5ccc(N6CCN(C)CC6)cc5[nH]4)cc3[nH]2)cc1 ?
no

Would you mind telling me which call this test gave CCN(CC)c1ccc(CNc2cc(C)nc3ccc(OC)cc23)cc1 ?
no
